Biological target: Vasopressin V1a/V2 (Homo sapiens) (UniProt P30518+P37288)
Sequence (P30518 whole entry, looked up): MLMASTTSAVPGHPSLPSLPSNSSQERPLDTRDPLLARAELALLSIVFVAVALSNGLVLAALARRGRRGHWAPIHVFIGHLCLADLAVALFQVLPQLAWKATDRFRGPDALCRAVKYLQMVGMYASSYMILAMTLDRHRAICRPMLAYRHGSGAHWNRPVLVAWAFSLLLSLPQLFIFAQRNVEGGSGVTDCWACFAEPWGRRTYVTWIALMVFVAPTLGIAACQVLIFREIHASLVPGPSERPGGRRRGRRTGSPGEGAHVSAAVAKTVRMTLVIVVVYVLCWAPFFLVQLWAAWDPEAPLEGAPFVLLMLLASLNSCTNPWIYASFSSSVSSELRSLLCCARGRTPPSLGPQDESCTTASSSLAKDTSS
Sequence (P37288 whole entry, looked up): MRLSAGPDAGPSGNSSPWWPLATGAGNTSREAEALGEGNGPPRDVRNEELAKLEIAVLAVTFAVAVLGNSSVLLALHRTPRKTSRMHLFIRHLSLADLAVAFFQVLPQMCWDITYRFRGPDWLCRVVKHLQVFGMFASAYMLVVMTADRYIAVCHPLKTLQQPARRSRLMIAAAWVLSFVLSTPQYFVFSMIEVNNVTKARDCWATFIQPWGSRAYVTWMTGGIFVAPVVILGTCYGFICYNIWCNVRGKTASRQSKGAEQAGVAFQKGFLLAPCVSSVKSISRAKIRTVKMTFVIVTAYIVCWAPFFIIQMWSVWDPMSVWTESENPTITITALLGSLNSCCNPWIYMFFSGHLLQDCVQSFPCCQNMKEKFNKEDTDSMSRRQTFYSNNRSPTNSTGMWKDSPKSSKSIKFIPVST
Assay: Selectivity ratio of EC50 for human vasopressin V2 receptor to EC50 for human vasopressin V1a receptor
Numbered stars: 1 amine (or outer) side, 2 acyl side, 3 side chain; on linkers, the order of the positions; unused ones are H or OH. Bridge positions count the residues as written; N and C are the ends. Square brackets hold non-standard residues; d marks the D form. Peptide text beside a SMILES is read from it. Ala(2-furyl) = N[C@@H](Cc1ccco1)C(=O)O; X1 = CCNCCC[C@H](N[*:1])C(=O)[*:2]; Orn = NCCC[C@H](N)C(=O)O
Please provide measured Ratio EC50 for the entries that follow.

compound	Ratio EC50
CC[C@H](C)[C@@H]1NC(=O)[C@H](Cc2ccco2)NC(=O)[C@@H](N)CSSC[C@@H](C(=O)N2CCC[C@H]2C(=O)N[C@@H](CCCN)C(=O)NCC(N)=O)NC(=O)[C@H](CC(N)=O)NC(=O)[C@H](CC(N)=O)NC1=O (H-C[Ala(2-furyl)]INNCP[Orn]G-NH2; disulfide 1-6)	> 1000

Request: Supply recorded Ratio EC50 for CCNCCC[C@H](NC(=O)[C@@H]1CCCN1C(=O)[C@@H]1CSSC[C@H](N)C(=O)N[C@@H](Cc2ccccc2)C(=O)N[C@@H]([C@@H](C)CC)C(=O)N[C@@H](CC(N)=O)C(=O)N[C@@H](CC(N)=O)C(=O)N1)C(=O)NCC(N)=O (H-CFINNCP[X1]G-NH2; disulfide 1-6) here.
Response: > 10000

====

Please provide measured pEC50 for the entries that follow.
Molecular target: UniProt:P30560
Sequence (P30560 whole entry): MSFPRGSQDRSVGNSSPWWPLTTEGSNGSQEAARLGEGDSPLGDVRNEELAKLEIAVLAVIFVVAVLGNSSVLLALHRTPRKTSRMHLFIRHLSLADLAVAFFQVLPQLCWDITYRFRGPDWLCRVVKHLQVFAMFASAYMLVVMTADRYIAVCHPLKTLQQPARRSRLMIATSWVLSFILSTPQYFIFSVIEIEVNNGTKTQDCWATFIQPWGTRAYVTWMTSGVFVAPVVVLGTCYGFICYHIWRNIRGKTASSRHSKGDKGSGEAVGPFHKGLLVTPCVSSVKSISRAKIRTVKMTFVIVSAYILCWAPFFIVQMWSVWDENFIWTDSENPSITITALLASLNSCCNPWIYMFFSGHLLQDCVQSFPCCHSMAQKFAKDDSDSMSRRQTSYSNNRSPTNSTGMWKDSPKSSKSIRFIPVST
Assay: Agonist activity at recombinant rat vasopressin V1a receptor expressed in HEK293 cells by luciferase reporter gene assay
Format: functional, cell-based
Details: read-out: EC50
Bridge positions count the residues as written; N and C are the ends. Square brackets hold non-standard residues; d marks the D form. Peptide text beside a SMILES is read from it. Ala(2-furyl) = N[C@@H](Cc1ccco1)C(=O)O; Orn(iPr) = CC(C)NCCC[C@H](N)C(=O)O; Orn(Pr) = CCCNCCC[C@H](N)C(=O)O; Orn = NCCC[C@H](N)C(=O)O
Answers are plain numbers, as −log10 of the molar value.

Here's what some known entries look like.
compound	experimental_value
CC[C@H](C)[C@@H]1NC(=O)[C@H](Cc2ccccc2)NC(=O)[C@@H](N)CSSC[C@@H](C(=O)N2CCC[C@H]2C(=O)N[C@@H](CCCN)C(=O)NCC(N)=O)NC(=O)[C@H](CC(N)=O)NC(=O)[C@H](CC(=O)N(C)C)NC1=O (H-CFID(NMe2)NCP[Orn]G-NH2; disulfide 1-6)	9.00
CC[C@H](C)[C@@H]1NC(=O)[C@H](Cc2ccco2)NC(=O)[C@@H](N)CSSC[C@@H](C(=O)N2CCC[C@H]2C(=O)N[C@@H](CCCNC(C)C)C(=O)NCC(N)=O)NC(=O)[C@H](CC(N)=O)NC(=O)[C@H](CCC(N)=O)NC1=O (H-C[Ala(2-furyl)]IQNCP[Orn(iPr)]G-NH2; disulfide 1-6)	9.21

Request: Supply recorded pEC50 for CCCNCCC[C@H](NC(=O)[C@@H]1CCCN1C(=O)[C@@H]1CSSC[C@H](N)C(=O)N[C@@H](Cc2ccccc2)C(=O)N[C@@H]([C@@H](C)CC)C(=O)N[C@@H](CCC(N)=O)C(=O)N[C@@H](CC(N)=O)C(=O)N1)C(=O)NCC(N)=O (H-CFIQNCP[Orn(Pr)]G-NH2; disulfide 1-6) here.
Response: 10.00

====

Target: Oxytocin receptor (Homo sapiens, UniProt P30559)
Sequence (P30559 whole entry): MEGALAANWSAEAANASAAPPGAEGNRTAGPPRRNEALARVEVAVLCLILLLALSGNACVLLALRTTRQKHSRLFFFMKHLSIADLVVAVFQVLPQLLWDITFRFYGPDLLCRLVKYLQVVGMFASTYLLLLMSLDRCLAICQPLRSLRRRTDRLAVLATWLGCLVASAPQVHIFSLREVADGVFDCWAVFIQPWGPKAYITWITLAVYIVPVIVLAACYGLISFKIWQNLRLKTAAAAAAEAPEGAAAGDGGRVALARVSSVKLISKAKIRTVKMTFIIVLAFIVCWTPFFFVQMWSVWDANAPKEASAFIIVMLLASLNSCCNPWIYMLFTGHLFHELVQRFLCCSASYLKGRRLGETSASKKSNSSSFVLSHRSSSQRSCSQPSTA
Assay: Agonist activity at human OT receptor expressed in CHO-K1 cells by luciferase reporter gene assay
Type: functional, cell-based
Details: read-out: pEC50 (converted)
Numbered stars: 1 amine (or outer) side, 2 acyl side, 3 side chain; on linkers, the order of the positions; unused ones are H or OH. Bridge positions count the residues as written; N and C are the ends. Square brackets hold non-standard residues; d marks the D form. Peptide text beside a SMILES is read from it. * marks the point of attachment. X4 = CONC(=O)CC[C@H](N[*:1])C(=O)[*:2]; Orn(iPr) = CC(C)NCCC[C@H](N)C(=O)O; Dab(iPr) = CC(C)NCC[C@H](N)C(=O)O; 2Thi = N[C@@H](Cc1cccs1)C(=O)O; Aad = N[C@@H](CCCC(=O)O)C(=O)O; Cha = N[C@@H](CC1CCCCC1)C(=O)O; NH(3-hydroxypropyl) = OCCCN*; Orn = NCCC[C@H](N)C(=O)O; Dab = NCC[C@H](N)C(=O)O; Ac4c = NC1(C(=O)O)CCC1; NHOH = ON*
value_type: EC50

Here's what some known entries look like.
molecule	EC50
CCNC(=O)C[C@@H]1NC(=O)[C@H]([C@@H](C)CC)NC(=O)[C@H](Cc2ccccc2)NC(=O)[C@@H](N)CSSC[C@@H](C(=O)N2CCC[C@H]2C(=O)N[C@@H](CCCN)C(=O)NCC(N)=O)NC(=O)[C@H](CC(N)=O)NC1=O (H-CFID(NHEt)NCP[Orn]G-NH2; disulfide 1-6)	> 10 µM
CC[C@H](C)[C@@H]1NC(=O)[C@H](Cc2ccccc2)NC(=O)[C@@H](N)CSSC[C@@H](C(=O)N2CCC[C@H]2C(=O)N[C@@H](CCNC(C)C)C(=O)NCC(N)=O)NC(=O)[C@H](CC(N)=O)NC(=O)[C@H](CCCC(N)=O)NC1=O (H-CFI[Aad](NH2)NCP[Dab(iPr)]G-NH2; disulfide 1-6)	> 10 µM
CC[C@H](C)[C@@H]1NC(=O)[C@H](Cc2ccccc2)NC(=O)[C@@H](N)CSSC[C@@H](C(=O)N2CCC[C@H]2C(=O)N[C@@H](CCCN)C(=O)NCC(N)=O)NC(=O)[C@H](CC(N)=O)NC(=O)[C@H](CCCC(N)=O)NC1=O (H-CFI[Aad](NH2)NCP[Orn]G-NH2; disulfide 1-6)	> 10 µM

For every item in the list below, what is its measured EC50?
1. CC[C@H](C)[C@@H]1NC(=O)[C@H](Cc2ccccc2)NC(=O)[C@@H](N)CSSC[C@@H](C(=O)N2CCC[C@H]2C(=O)N[C@@H](CCCN)C(=O)NCC(N)=O)NC(=O)[C@H](CC(N)=O)NC(=O)[C@H](CCC(=O)NO)NC1=O (H-CFIE(NHOH)NCP[Orn]G-NH2; disulfide 1-6)
2. CC[C@H](C)[C@@H]1NC(=O)C2(CCC2)NC(=O)[C@@H](N)CSSC[C@@H](C(=O)N2CCC[C@H]2C(=O)N[C@@H](CCCN)C(=O)NCC(N)=O)NC(=O)[C@H](CC(N)=O)NC(=O)[C@H](CC(N)=O)NC1=O (H-C[Ac4c]INNCP[Orn]G-NH2; disulfide 1-6)
3. CC[C@H](C)[C@@H]1NC(=O)[C@H](Cc2ccccc2)NC(=O)[C@@H](N)CSSC[C@@H](C(=O)N2CCC[C@H]2C(=O)N[C@@H](CCCN)C(=O)NCC(N)=O)NC(=O)[C@H](CC(N)=O)NC(=O)[C@H](CC(=O)NCCCO)NC1=O (H-CFID(NH(3-hydroxypropyl))NCP[Orn]G-NH2; disulfide 1-6)

Response:
> 10 µM
> 10 µM
> 10 µM

For every item in the list below, what is its measured EC50?
1. CC[C@H](C)[C@@H]1NC(=O)[C@H](Cc2ccccc2)NC(=O)[C@@H](N)CSSC[C@@H](C(=O)N2CCC[C@H]2C(=O)N[C@@H](CCCN)C(=O)NCC(N)=O)NC(=O)[C@H](CC(N)=O)NC(=O)[C@H](CC(N)=O)NC1=O (H-CFINNCP[Orn]G-NH2; disulfide 1-6)
2. CCNC(=O)C[C@@H]1NC(=O)[C@H]([C@@H](C)CC)NC(=O)[C@H](Cc2ccccc2)NC(=O)[C@@H](N)CSSC[C@@H](C(=O)N2CCC[C@H]2C(=O)N[C@@H](CCN)C(=O)NCC(N)=O)NC(=O)[C@H](CC(N)=O)NC1=O (H-CFID(NHEt)NCP[Dab]G-NH2; disulfide 1-6)
3. CC[C@H](C)[C@@H]1NC(=O)C2(CCC2)NC(=O)[C@@H](N)CSSC[C@@H](C(=O)N2CCC[C@H]2C(=O)N[C@@H](CCN)C(=O)NCC(N)=O)NC(=O)[C@H](CC(N)=O)NC(=O)[C@H](CCC(N)=O)NC1=O (H-C[Ac4c]IQNCP[Dab]G-NH2; disulfide 1-6)
4. CC[C@H](C)[C@@H]1NC(=O)[C@H](Cc2cccs2)NC(=O)[C@@H](N)CSSC[C@@H](C(=O)N2CCC[C@H]2C(=O)N[C@@H](CCN)C(=O)NCC(N)=O)NC(=O)[C@H](CC(N)=O)NC(=O)[C@H](CC(N)=O)NC1=O (H-C[2Thi]INNCP[Dab]G-NH2; disulfide 1-6)
5. NCCC[C@H](NC(=O)[C@@H]1CCCN1C(=O)[C@@H]1CSSC[C@H](N)C(=O)N[C@@H](Cc2ccccc2)C(=O)N[C@@H](Cc2ccccc2)C(=O)N[C@@H](CCC(N)=O)C(=O)N[C@@H](CC(N)=O)C(=O)N1)C(=O)NCC(N)=O (H-CFFQNCP[Orn]G-NH2; disulfide 1-6)
6. CC[C@H](C)[C@@H]1NC(=O)[C@H](CC2CCCCC2)NC(=O)[C@@H](N)CSSC[C@@H](C(=O)N2CCC[C@H]2C(=O)N[C@@H](CCCNC(C)C)C(=O)NCC(N)=O)NC(=O)[C@H](CC(N)=O)NC(=O)[C@H](CC(N)=O)NC1=O (H-C[Cha]INNCP[Orn(iPr)]G-NH2; disulfide 1-6)
7. CC[C@H](C)[C@@H]1NC(=O)[C@H](Cc2ccccc2)NC(=O)[C@@H](N)CSSC[C@@H](C(=O)N2CCC[C@H]2C(=O)N[C@@H](CCCN)C(=O)NCC(N)=O)NC(=O)[C@H](CC(N)=O)NC(=O)[C@H](CCC(=O)NOC)NC1=O (H-CFI[X4]NCP[Orn]G-NH2; disulfide 1-6)

Response:
> 10 µM
> 10 µM
> 10 µM
> 10 µM
> 10 µM
> 10 µM
> 10 µM
